test system: Mycoplasma genitalium; assay: microbe, parasite or virus in culture; type: cell-based; conditions: Mycoplasmoides genitalium, ATCC33530
The following molecules are listed with their measured MIC values.
Field: numeric (µg/mL). Do not append units.

As a guide, the following entries are already answered.
>  <molecule>
C[C@@H]1CN2c3c(cc4c(N5C(=O)OC[C@@H]5C)noc4c3F)CC3(C(=O)NC(=O)NC3=O)[C@H]2[C@H](C)O1 [Compound 1]

>  <MIC / µg/mL>
0.5

$$$$
>  <molecule>
C[C@H]1COc2c(N3CCN(C)CC3)c(F)cc3c(=O)c(C(=O)O)cn1c23 [Levofloxacin]

>  <MIC / µg/mL>
2

$$$$

Now look at this one.
Exercise: Give MIC (Mycoplasma genitalium) of the following molecule: C[C@H]1c2cccc(O)c2C(=O)C2=C(O)[C@]3(O)C(=O)C(C(N)=O)=C(O)[C@@H](N(C)C)[C@@H]3[C@@H](O)[C@@H]21 [Doxycycline]
Solution: 0.25

###

system: Mycoplasma genitalium; experiment: microbe, parasite or virus in culture; format: cell-based; settings: Mycoplasmoides genitalium
quantity name: MIC (µg/mL)
Field: numeric (µg/mL). Do not append units.

As a guide, the following entries are already answered.
>  <smiles representation>
C[C@H]1COc2c(N3CCN(C)CC3)c(F)cc3c(=O)c(C(=O)O)cn1c23

>  <unit name>
µg/mL

>  <quantitative result>
0.5

$$$$
>  <smiles representation>
C[C@H]1c2cccc(O)c2C(=O)C2=C(O)[C@]3(O)C(=O)C(C(N)=O)=C(O)[C@@H](N(C)C)[C@@H]3[C@@H](O)[C@@H]21

>  <unit name>
µg/mL

>  <quantitative result>
1

$$$$

Now look at this one.
Exercise: So what does the record say about MIC for C[C@@H]1CN2c3c(cc4c(N5C(=O)OC[C@@H]5C)noc4c3F)CC3(C(=O)NC(=O)NC3=O)[C@H]2[C@H](C)O1 ?
Solution: 0.5

###

The following molecules are listed with their measured MIC values.
test system: Mycoplasma genitalium; assay: microbe, parasite or virus in culture; assay type: cell-based; conditions: Mycoplasmoides genitalium, ATCC49899
Field: numeric (µg/mL). Do not append units.

>  <molecule>
C[C@H]1c2cccc(O)c2C(=O)C2=C(O)[C@]3(O)C(=O)C(C(N)=O)=C(O)[C@@H](N(C)C)[C@@H]3[C@@H](O)[C@@H]21 [Doxycycline]

>  <target or system>
Mycoplasma genitalium

>  <MIC (µg/mL)>
0.5

$$$$
>  <molecule>
C[C@@H]1CN2c3c(cc4c(N5C(=O)OC[C@@H]5C)noc4c3F)CC3(C(=O)NC(=O)NC3=O)[C@H]2[C@H](C)O1 [Compound 1]

>  <target or system>
Mycoplasma genitalium

>  <MIC (µg/mL)>
0.5

$$$$

Now look at this one.
Exercise: So what does the record say about MIC for C[C@H]1COc2c(N3CCN(C)CC3)c(F)cc3c(=O)c(C(=O)O)cn1c23 [Levofloxacin] ?
Solution: 2

###

test system: Mycoplasma hominis; assay: microbe, parasite or virus in culture; type: cell-based
quantity name: MIC Range

As a guide, the following entries are already answered.
>  <smiles representation>
C[C@H]1COc2c(N3CCN(C)CC3)c(F)cc3c(=O)c(C(=O)O)cn1c23

>  <MIC Range>
0.063 to 0.25 µg/mL

$$$$
>  <smiles representation>
CC[C@H]1OC(=O)[C@H](C)[C@@H](O[C@H]2C[C@@](C)(OC)[C@@H](O)[C@H](C)O2)[C@H](C)[C@@H](O[C@@H]2O[C@H](C)C[C@H](N(C)C)[C@H]2O)[C@](C)(O)C[C@@H](C)CN(C)[C@H](C)[C@@H](O)[C@]1(C)O

>  <MIC Range>
1 to 8 µg/mL

$$$$
>  <smiles representation>
C[C@@H]1CN2c3c(cc4c(N5C(=O)OC[C@@H]5C)noc4c3F)CC3(C(=O)NC(=O)NC3=O)[C@H]2[C@H](C)O1

>  <MIC Range>
1 to 8 µg/mL

$$$$

Now look at this one.
Exercise: So what does the record say about MIC Range for C[C@H]1c2cccc(O)c2C(=O)C2=C(O)[C@]3(O)C(=O)C(C(N)=O)=C(O)[C@@H](N(C)C)[C@@H]3[C@@H](O)[C@@H]21 ?
Solution: 0.016 to 4 µg/mL
